molecular target: SGK1 protein kinase (Homo sapiens)
Sequence (O00141 whole entry): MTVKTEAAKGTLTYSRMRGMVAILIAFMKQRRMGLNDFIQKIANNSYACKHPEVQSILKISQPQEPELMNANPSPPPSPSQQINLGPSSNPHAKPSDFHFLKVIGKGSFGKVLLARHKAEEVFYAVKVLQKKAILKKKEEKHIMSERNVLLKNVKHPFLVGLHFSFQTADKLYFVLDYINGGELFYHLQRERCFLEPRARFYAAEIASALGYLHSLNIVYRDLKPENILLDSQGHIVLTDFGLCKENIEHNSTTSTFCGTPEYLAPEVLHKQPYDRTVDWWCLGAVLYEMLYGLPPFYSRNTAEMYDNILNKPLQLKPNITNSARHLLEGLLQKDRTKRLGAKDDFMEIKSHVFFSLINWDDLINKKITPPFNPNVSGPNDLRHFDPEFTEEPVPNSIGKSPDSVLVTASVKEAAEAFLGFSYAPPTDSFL
MEASUREMENT_KIND: IC50

# COMPOUND, EXPERIMENTAL_SYSTEM, MEASUREMENT_KIND, ASSAY_RESULT
rows = [
    ("CCc1c(C(=O)NNC(=O)[C@@H](O)c2cc(F)cc(F)c2)ccc(O)c1C [Ia]", "SGK1 protein kinase (Homo sapiens)", "IC50", "> 300 nM"),
]

Query compound follows.
-- ask Reported IC50, compound CCc1c(C(=O)NNC(=O)C(O)c2cc(F)cc(F)c2)ccc(O)c1C (racemic) [I] : ____
-- reply > 300 nM
